Tested on: MD-MB-231
experimental.details: MTT cell viability assay in MD-MB-231 cells
Format: cell-based
measurement.conditions: read-out: IC50 values of cell death
pIC50: −log10 of the molar value.
quantity: pIC50

CNCCCN1c2ccccc2CCc2ccccc21 [DMI, desipramine]; < 4.30
